Attribution: PubChem BioAssay AID651610

Assay: inhibitors of HIV-1 Env-driven cell-cell fusion, primary screen, HeLa-JRFL effector, CEM21 target cells, luciferase (AID 651610);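 note: 0% = plate neutral controls and 100% = maraviroc near 300 nM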
Settings: at 16.7 µM unless noted
Among all 360,000 compounds or so, about 3,900 (1.1%) were called active.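 Rule for the calls: active = mean replicate inhibition score of at least 50 and every replicate individually at or above 50; inconclusive = only one of the two criteria met; inactive = mean below 50 and not all replicates reaching 50.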 The list comes from a sample in which actives are over-represented; it also holds close analogues and randomly drawn compounds.
Answer with one of the outcomes given here: class 1 = active, class 0 = inactive

Example entries and their recorded answers appear below.
CCCCNc1cccc2c1S(=O)(=O)N[C@@H](C)CO2 ... class 0
CCOC(=O)c1c(NC(=O)C2(C)Cc3ccccc3C(=O)O2)sc2c1CCCC2 (centres undefined) ... class 0

Just curious, what result did COc1ccc(CC(N)c2csc(NC(=O)Cc3ccccc3)n2)cc1 (centres undefined) get here?
class 0

Would you mind doing O=C(C[C@@H]1C[C@@H]2c3cc(NC(=O)C4CCC4)ccc3O[C@@H]2[C@@H](CO)O1)NCCN1CCCCC1 as well?
class 0

Would you mind doing CN(CC(=O)NCc1cccnc1)S(=O)(=O)c1cc(Cl)ccc1Cl as well?
class 0

====

Assay: inhibitors of HIV-1 Env-driven cell-cell fusion, primary screen, HeLa-JRFL effector, CEM21 target cells, luciferase (AID 651610);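 note: 0% = plate neutral controls and 100% = maraviroc near 300 nM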
Conditions: at 16.7 µM unless noted
Out of some 360,000 compounds screened, about 3,900 (1.1%) were called active.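 The calls were made as follows: active = mean replicate inhibition score of at least 50 and every replicate individually at or above 50; inconclusive = only one of the two criteria met; inactive = mean below 50 and not all replicates reaching 50.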 What follows is part of a selection rich in actives, with near analogues and random picks from the rest.
Answer with one of the outcomes given here: active, inactive

Just curious, what result did C[C@@H]1CN([C@@H](C)CO)C(=O)c2cc(NC(=O)c3ccncc3)ccc2O[C@@H]1CN(C)Cc1ccncc1 get here?
active

Would you mind doing CN1C(=O)c2cc(NC(=O)Cc3cccs3)ccc2OC[C@@H]2O[C@@H](CC(=O)N[C@@H]3CCN(Cc4ccccc4)C3)CC[C@H]21 as well?
inactive

Would you mind doing C/C(=N/NC(=O)c1ccncc1)c1ccc2c(c1)OCO2 as well?
inactive

Would you mind doing COc1ccccc1NC(=O)N[C@H]1CC[C@@H](CCn2cc(C3(O)CCCC3)nn2)O[C@@H]1CO as well?
inactive

Would you mind doing COc1ccc(C(O)c2nc(-c3ccc4c(c3)OCO4)cs2)cc1 (configuration not stated) as well?
inactive

Would you mind doing C[C@H](CO)N1C[C@H](C)[C@@H](CN(C)Cc2ccncc2)Oc2ccc(NC(=O)Nc3ccccc3)cc2C1=O as well?
inactive

Would you mind doing CSCCC(C(=O)NC(C)(C)C)n1c(-c2ccccc2)nc2ccccc21 (configuration not stated) as well?
active

Would you mind doing COCC(=O)Nc1ccc2c(c1)C(=O)N(C)[C@H]1CC[C@H](CC(=O)Nc3ccccc3)O[C@H]1CO2 as well?
inactive

Would you mind doing O=C(N[C@@H]1CC[C@H](CCn2cc(-c3ccccn3)nn2)O[C@@H]1CO)c1ccccc1 as well?
inactive

Would you mind doing CO[C@@H]1CN(C)C(=O)c2cc(NS(=O)(=O)c3cccc(Cl)c3)ccc2OC[C@@H](C)NC[C@@H]1C as well?
inactive

Would you mind doing C[C@H](CO)N1C[C@H](C)[C@@H](CN(C)C(=O)c2ccccc2)OCCCC[C@H](C)Oc2ccc(NC(=O)c3ccccc3)cc2C1=O as well?
inactive

====

Assay: inhibitors of HIV-1 Env-driven cell-cell fusion, primary screen, HeLa-JRFL effector, CEM21 target cells, luciferase (AID 651610);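 note: 0% = plate neutral controls and 100% = maraviroc near 300 nM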
Conditions: at 16.7 µM unless noted
Among all 360,000 compounds or so, about 3,900 (1.1%) were called active.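 How the source made its calls: active means mean replicate inhibition score of at least 50 and every replicate individually at or above 50; inconclusive means only one of the two criteria met; inactive means mean below 50 and not all replicates reaching 50.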 The sample holds actives, similar compounds and a random draw of the others, so the mix is not that of the screen.
Answer with one of the outcomes given here: true (1) for active, false (0) for inactive

O=S(=O)(NCc1ccccc1)c1ccc(S(=O)(=O)N2CCCC2)cc1 ... false (0)
CCOC(=O)C(C)Oc1cccc2c(=O)n(CC(=O)NCCc3ccc(OC)c(OC)c3)ccc12 (stereo not drawn) ... true (1)
O=C(C[C@H]1C[C@@H]2c3cc(NS(=O)(=O)c4ccc(F)cc4)ccc3O[C@@H]2[C@@H](CO)O1)NCc1cccc(F)c1 ... false (0)
Cc1ccc(S(=O)(=O)Nc2ccc3c(c2)C(=O)N([C@H](C)CO)C[C@H](C)[C@H](CN(C)S(=O)(=O)c2ccc(F)cc2)OCCCC[C@@H](C)O3)cc1 ... false (0)
Cc1nc(Nc2ccc(S(=O)(=O)N3CCCC3)cc2)c2nnn(Cc3ccccc3)c2n1 ... false (0)
C[C@@H]1CN([C@@H](C)CO)C(=O)c2cc(NC(=O)C3CCCCC3)ccc2O[C@@H](C)CCCCO[C@@H]1CN(C)Cc1ccc(C(=O)O)cc1 ... false (0)
C=CCn1c(C)cc(C2=NNC(=NCC)SC2)c1C ... true (1)

Here's the next entry for you.
Just curious, what result did O=C(C[C@H]1C[C@H]2c3cc(NS(=O)(=O)c4ccc(F)cc4)ccc3O[C@H]2[C@H](CO)O1)NCc1cc(F)ccc1F get here?
false (0)
